Tested on: EPLC-272H
measurementNotes: relative viability (nuclei count vs DMSO), 5 days (fraction); higher = more cells survive
runConditions: first compound 0.08 µM
Lab note: cut-off is 0.8. Strictly less in relative viability is Yes. Exactly 0.8 or more is No.

Would you please look over these solved cases?
INSERT INTO assay_data (molecule, discretelabel) VALUES
  ('Cc1cnc(-c2cnc(NCCNc3ccc(C#N)cn3)nc2-c2ccc(Cl)cc2Cl)[nH]1 + CC(=O)Nc1cccc(-n2c(=O)n(C3CC3)c(=O)c3c(Nc4ccc(I)cc4F)n(C)c(=O)c(C)c32)c1 [Trametinib] (partner 0.02 µM)', 'Yes'),
  ('O=c1[nH]c2ccccc2n1C1CCN(CCCC(c2ccc(F)cc2)c2ccc(F)cc2)CC1 [Pimozide] + Nc1nc2[nH]cc(CCc3ccc(C(=O)N[C@@H](CCC(=O)O)C(=O)O)cc3)c2c(=O)[nH]1 [Pemetrexed] (partner 0.2 µM)', 'Yes'),
  ('Cc1cnc(-c2cnc(NCCNc3ccc(C#N)cn3)nc2-c2ccc(Cl)cc2Cl)[nH]1 + CS(=O)(=O)CCNCc1ccc(-c2ccc3ncnc(Nc4ccc(OCc5cccc(F)c5)c(Cl)c4)c3c2)o1 [Lapatinib] (partner 2 µM)', 'No');

Query string: For this molecule, is relative viability lower than 0.8? Cc1cnc(-c2cnc(NCCNc3ccc(C#N)cn3)nc2-c2ccc(Cl)cc2Cl)[nH]1 + CS(=O)(=O)N1CCN(Cc2cc3nc(-c4cccc5[nH]ncc45)nc(N4CCOCC4)c3s2)CC1 [Pictilisib] (partner 1 µM)
Result string: Yes

Query string: Another molecule: Cc1cnc(-c2cnc(NCCNc3ccc(C#N)cn3)nc2-c2ccc(Cl)cc2Cl)[nH]1 + O=C(c1cc(Cc2n[nH]c(=O)c3ccccc23)ccc1F)N1CCN(C(=O)C2CC2)CC1 [Olaparib] (partner 8 µM)
Result string: Yes

Query string: Another molecule: Cc1cnc(-c2cnc(NCCNc3ccc(C#N)cn3)nc2-c2ccc(Cl)cc2Cl)[nH]1 + Cc1cc(Nc2cc(N3CCN(C)CC3)nc(Sc3ccc(NC(=O)C4CC4)cc3)n2)n[nH]1 [Tozasertib] (partner 0.1 µM)
Result string: Yes

Query string: Another molecule: O=c1[nH]c2ccccc2n1C1CCN(CCCC(c2ccc(F)cc2)c2ccc(F)cc2)CC1 [Pimozide] + CC(C)C[C@H](NC(=O)[C@H](Cc1ccccc1)NC(=O)c1cnccn1)B(O)O [Bortezomib] (partner 0.002 µM)
Result string: No
